The origin of these recorded values is paper PMC10786891.

Target Desc: T1, EsCas13d, nuclease-dead (Eubacterium siraeum, UniProt B0MS50, R295A;H300A;R849A;H854A)
T1 sequence: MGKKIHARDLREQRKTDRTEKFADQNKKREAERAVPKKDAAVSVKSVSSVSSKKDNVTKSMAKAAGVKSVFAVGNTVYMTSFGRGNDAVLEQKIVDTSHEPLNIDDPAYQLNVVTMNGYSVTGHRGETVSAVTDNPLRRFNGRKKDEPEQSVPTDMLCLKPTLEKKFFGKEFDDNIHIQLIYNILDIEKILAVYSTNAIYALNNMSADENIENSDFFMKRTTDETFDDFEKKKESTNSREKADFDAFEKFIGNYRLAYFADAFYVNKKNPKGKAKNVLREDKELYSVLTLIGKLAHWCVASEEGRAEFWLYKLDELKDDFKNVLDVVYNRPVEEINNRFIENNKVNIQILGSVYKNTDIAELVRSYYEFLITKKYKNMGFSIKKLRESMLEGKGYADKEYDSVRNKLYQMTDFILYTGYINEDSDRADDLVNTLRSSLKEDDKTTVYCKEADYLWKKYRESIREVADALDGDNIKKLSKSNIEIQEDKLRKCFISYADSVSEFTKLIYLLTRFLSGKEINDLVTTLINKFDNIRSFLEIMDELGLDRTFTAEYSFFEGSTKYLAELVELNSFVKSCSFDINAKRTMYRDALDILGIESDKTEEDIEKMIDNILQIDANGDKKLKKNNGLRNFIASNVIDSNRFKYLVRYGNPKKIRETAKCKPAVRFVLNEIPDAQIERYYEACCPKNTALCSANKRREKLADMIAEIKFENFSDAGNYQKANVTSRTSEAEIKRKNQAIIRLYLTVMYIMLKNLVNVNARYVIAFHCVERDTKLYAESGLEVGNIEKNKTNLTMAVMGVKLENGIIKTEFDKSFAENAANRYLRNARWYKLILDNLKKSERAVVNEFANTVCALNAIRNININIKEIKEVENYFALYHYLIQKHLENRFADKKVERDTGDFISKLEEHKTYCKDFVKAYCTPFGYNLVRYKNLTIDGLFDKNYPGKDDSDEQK
Test Description: crRNA (strand 1, pre-loaded); Mg2+; 40 mM Tris-HCl pH 7.5, 150 mM NaCl, 6 mM MgCl2, 1 mM DTT, 0.1% Tween-20, 0.2 mg/ml BSA; 25 C; 10 min per concentration, then washed
Test Settings: tags: His6-TwinStrep-SUMO cleaved; N-terminal SNAP kept (SNAP-Surface 488); label: 3' end held by stalled T7 RNA polymerase
Would you mind telling me the reported log10 of Kd of each entry?
Response schema: value (number) is log10 of Kd in units of nM.

Some binders with recorded log10 of Kd:
| Binder | Measured Metric | Measured Result |
| --- | --- | --- |
| target 2 MT 5'PFS GUA 3'PFS UAA (mixed) RNA 1: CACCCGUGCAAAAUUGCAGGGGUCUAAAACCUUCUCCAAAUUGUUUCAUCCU RNA 2: GGGAAUGGAUCCACAUCUACGAAUUCGUAAGGAUGAAACAAUUUGGAGAAGUAAAGAUCGGAAGAGCACACGU | log10 of Kd | 0.74 |
| target 3 C1G,U8G (mixed) RNA 1: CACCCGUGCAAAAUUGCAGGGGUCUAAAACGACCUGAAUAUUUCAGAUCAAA RNA 2: GGGAAUGGAUCCACAUCUACGAAUUCGUUUUUGAUCUGAAAUAGUCAGGUGUGCAGAUCGGAAGAGCACACGU | log10 of Kd | 1.54 |
| target 2 MT 5'PFS CUA 3'PFS UCC (mixed) RNA 1: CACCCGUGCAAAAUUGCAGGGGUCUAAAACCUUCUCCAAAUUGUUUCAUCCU RNA 2: GGGAAUGGAUCCACAUCUACGAAUUCCUAAGGAUGAAACAAUUUGGAGAAGUCCAGAUCGGAAGAGCACACGU | log10 of Kd | 0.53 |
| target 2 MT 5'PFS ACU 3'PFS UUA (mixed) RNA 1: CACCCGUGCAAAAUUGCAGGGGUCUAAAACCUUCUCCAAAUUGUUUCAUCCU RNA 2: GGGAAUGGAUCCACAUCUACGAAUUCACUAGGAUGAAACAAUUUGGAGAAGUUAAGAUCGGAAGAGCACACGU | log10 of Kd | 0.97 |
| target 2 MT 5'PFS AUU 3'PFS AUG (mixed) RNA 1: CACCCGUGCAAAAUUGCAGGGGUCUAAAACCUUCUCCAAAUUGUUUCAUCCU RNA 2: GGGAAUGGAUCCACAUCUACGAAUUCAUUAGGAUGAAACAAUUUGGAGAAGAUGAGAUCGGAAGAGCACACGU | log10 of Kd | 0.88 |

State recorded log10 of Kd for all listed binders.
1. target 2 MT 5'PFS GUC 3'PFS ACA (mixed) RNA 1: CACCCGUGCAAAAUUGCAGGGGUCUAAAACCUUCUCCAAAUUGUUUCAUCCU RNA 2: GGGAAUGGAUCCACAUCUACGAAUUCGUCAGGAUGAAACAAUUUGGAGAAGACAAGAUCGGAAGAGCACACGU
2. target 1 insC 3' of 12,insC 3' of 10 (mixed) RNA 1: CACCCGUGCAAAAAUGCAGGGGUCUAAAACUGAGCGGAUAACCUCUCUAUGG RNA 2: GGGAAUGGAUCCACAUCUACGAAUUCGUACCAUAGAGAGGCUUCAUCCGCUCACCGAGAUCGGAAGAGCACACGU
3. target 3 C1A,U7C (mixed) RNA 1: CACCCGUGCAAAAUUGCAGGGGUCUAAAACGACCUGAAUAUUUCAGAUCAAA RNA 2: GGGAAUGGAUCCACAUCUACGAAUUCGUUUUUGAUCUGAAAUAUCCAGGUAUGCAGAUCGGAAGAGCACACGU

1. 1.27
2. 1.38
3. 2.00
